- MEASURED_ON: T1, APJ-eGFP fusion protein on CHO-M1 cells (UniProt P35414 1-380)
- T1 sequence (looked up): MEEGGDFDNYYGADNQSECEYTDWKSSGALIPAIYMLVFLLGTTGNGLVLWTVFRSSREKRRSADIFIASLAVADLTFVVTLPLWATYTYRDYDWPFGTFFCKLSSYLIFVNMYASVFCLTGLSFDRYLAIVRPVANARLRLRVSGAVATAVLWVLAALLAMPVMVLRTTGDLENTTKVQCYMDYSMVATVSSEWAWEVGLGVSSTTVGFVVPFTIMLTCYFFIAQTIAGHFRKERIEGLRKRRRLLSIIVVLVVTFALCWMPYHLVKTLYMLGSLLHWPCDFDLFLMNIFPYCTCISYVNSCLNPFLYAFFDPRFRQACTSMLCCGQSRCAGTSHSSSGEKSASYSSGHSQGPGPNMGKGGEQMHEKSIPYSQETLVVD
- EXPERIMENTAL_PROTOCOL: cell-based or functional assay
Each item that follows carries a reported Internalization Score.
Write the number on its own, no unit after it.

So for ELA-K (Fc fusion) DKTHTSPPSPAPEAAGGPSVFLFPPKPKDTLMISRTPEVTCVVVDVSHEDPEVKFNWYVDGVEVHNAKTKPREEQYNSTYRVVSVLTVLHQDWLNGKEYKCKVSNKALPAPIEKTISKAKGQPREPQVYTLPPSREEMTKNQVNLTCLVKGFYPSDIAVEWESNGQPENNYKTTPPVLDSDGSFFLNSTLTVDKSRWQQGNVFSCSVMHEALHNHYTQKSLSLSPGKGGGGSGGGGSGGGGSKLRKHNCLIRRCMPLHSRVPFP , the logged Internalization Score turned out to be 2

So for APL-E (Fc fusion) DKTHTSPPSPAPEAAGGPSVFLFPPKPKDTLMISRTPEVTCVVVDVSHEDPEVKFNWYVDGVEVHNAKTKPREEQYNSTYRVVSVLTVLHQDWLNGKEYKCKVSNKALPAPIEKTISKAKGQPREPQVYTLPPSREEMTKNQVNLTCLVKGFYPSDIAVEWESNGQPENNYKTTPPVLDSDGSFFLNSTLTVDKSRWQQGNVFSCSVMHEALHNHYTQKSLSLSPGKGGGGSGGGGSGGGGSQRPRLSHKGPHPF , the logged Internalization Score turned out to be 1

So for APL-I (Fc fusion) DKTHTSPPSPAPEAAGGPSVFLFPPKPKDTLMISRTPEVTCVVVDVSHEDPEVKFNWYVDGVEVHNAKTKPREEQYNSTYRVVSVLTVLHQDWLNGKEYKCKVSNKALPAPIEKTISKAKGQPREPQVYTLPPSREEMTKNQVNLTCLVKGFYPSDIAVEWESNGQPENNYKTTPPVLDSDGSFFLNSTLTVDKSRWQQGNVFSCSVMHEALHNHYTQKSLSLSPGKGGGGSGGGGSGGGGSQRPRLSHKGPAAW , the logged Internalization Score turned out to be 1
